Reference source for all entries: patent US10822337B2

System: TGF-β signaling (TGF-β pSMAD, MPC-11)
Experiment: AlphaScreen SureFire SMAD3 (p-Ser423/425) assay, inhibition of TGF-β signaling
Format: cell-based
Details: Mus musculus, p-SMAD-3 (Ser423/425) in cell lysate after TGF-β stimulation
Range-based classes on measured IC50: lower band (below 0.7 µM), central band (0.7 µM to below 2 µM), upper band (2 µM or more)

Band of Fc1ccccc1-c1nn2c(c1-c1ccc3cn[nH]c3c1)CCC2 [Compound 134] ? upper band

Which class does Fc1ccc(-c2nn3c(c2-c2ccc4ncnn4c2)CCC3)c(F)c1Cl [Compound 160] fall in? central band

Into which category would you place Fc1ccc(-c2nn3c(c2-c2ccc4cn[nH]c4c2)CCC3)c(F)c1F [Compound 129] ? central band

Category of Cc1cc(-c2nn3c(c2-c2ccc4ncn(C)c4c2)CCC3)ccc1F [Compound 16] : lower band

For this compound, which bin applies? Fc1cc(F)c(-c2nn3c(c2-c2ccc4nccnc4c2)CCC3)cc1F [Compound 118] lower band

Which class does Cc1cccc(-c2nn3c(c2-c2ccc4ncccc4c2)OCC3)c1 [Compound 51] fall in? upper band

Which category does the recorded IC50 put Clc1cccc(-c2nn3c(c2-c2ccc4ncsc4c2)CCC3)c1 [Compound 26] in? lower band

// return the class label for Cc1cccc(-c2nn3c(c2-c2ccc4ncsc4c2)CCC3)c1 [Compound 12] lower band

Kindly state the category for this compound: Cn1cnc2ccc(-c3c(-c4cccc(F)c4)nn4c3CCC4)cc21 [Compound 79] lower band

// return the class label for Cc1cc(-c2nn3c(c2-c2ccc4cn[nH]c4c2)CCC3)c(F)cc1F [Compound 180] central band

Dear colleague, I would appreciate it if you could identify the bin for Fc1cccc(-c2nn3c(c2-c2ccc4nccn4c2)CCC3)c1 [Compound 80] and reply at your convenience. upper band

Exercise: read the entry Clc1cccc(-c2nn3c(c2-c2ccc4[nH]ncc4c2)CCC3)c1 [Compound 22] and state which class it falls under. lower band

# classify by IC50 band: Fc1ccc(-c2nn3c(c2-c2ccc4nccnc4c2)CCC3)cc1F [Compound 89] central band

Category of Cc1cc(-c2nn3c(c2-c2ccc4c(cnn4C)c2)CCC3)ccc1F [Compound 15] , please. upper band

Assign a bin to Fc1ccccc1-c1nn2c(c1-c1ccc3nccnc3c1)CCC2 [Compound 136] upper band

Given Fc1ccc(-c2nn3c(c2-c2ccc4nccn4c2)CCC3)cc1 [Compound 19] , name the class its IC50 places it in. central band

In plain terms, what class is Cc1cccc(-c2nn3c(c2-c2ccc4[nH]ncc4c2)OCCC3)c1 [Compound 40] ? upper band

Into which bin does this compound go? COc1cccc(-c2nn3c(c2-c2ccc4ncccc4c2)OCC3)c1 [Compound 75] upper band

Dear colleague, I would appreciate it if you could identify the bin for c1cc2c(cc1-c1nn3c(c1-c1ccc4[nH]ncc4c1)CCC3)OCO2 [Compound 90] and reply at your convenience. upper band

Which category fits this record: FC(F)(F)Oc1cccc(-c2nn3c(c2-c2ccc4ncsc4c2)CCC3)c1 [Compound 125] lower band

Band assignment needed for Fc1ccc(-c2nn3c(c2-c2ccc4ncccc4c2)CCC3)cc1 [Compound 45] please. upper band

Which IC50 band matches Fc1ccc(F)c(-c2nn3c(c2-c2ccc4ncnn4c2)CCC3)c1 [Compound 198] ? lower band

In plain terms, what class is Fc1c(Cl)cccc1-c1nn2c(c1-c1ccc3nccn3c1)CCC2 [Compound 139] ? central band

# classify by IC50 band: Fc1cc(F)c(-c2nn3c(c2-c2ccc4ncsc4c2)CCC3)cc1F [Compound 116] lower band

Class (by measured IC50) for Cn1cnc2ccc(-c3c(-c4cc(F)c(F)cc4F)nn4c3CCC4)cc21 [Compound 114] lower band

Categorize the following entry: Fc1ccc(-c2nn3c(c2-c2ccc4nccn4c2)CCC3)c(F)c1F [Compound 130] central band

Exam item: assign Cn1cnc2ccc(-c3c(-c4ccc(F)c(F)c4)nn4c3CCC4)cc21 [Compound 85] to the correct category. lower band

// bin(item) where item = COc1cccc(-c2nn3c(c2-c2ccc4ncsc4c2)OCC3)c1 [Compound 74] central band

Which IC50 band matches Fc1ccc(-c2nn3c(c2-c2ccc4nccnc4c2)CCC3)cc1OC(F)(F)F [Compound 153] ? central band

Just checking, what class would you give COc1ccc(-c2nn3c(c2-c2ccc4ncsc4c2)CCC3)cc1 [Compound 100] here? upper band

# classify by IC50 band: Fc1ccc(-c2nn3c(c2-c2ccc4[nH]ncc4c2)CCC3)c(F)c1 [Compound 91] central band

Which bin, given its IC50, does COCCOc1cnc2ccc(-c3c(-c4cc(F)ccc4F)nn4c3CCC4)cc2n1 [Compound 200] occupy? central band

Class? Entry: Fc1cccc(-c2nn3c(c2-c2ccc4ncnn4c2)CCC3)c1 [Compound 109] central band

Please let me know in which category the item Fc1ccc(-c2nn3c(c2-c2ccc4ncccc4c2)CCC3)cc1Cl [Compound 146] belongs. upper band

Please report the category associated with COc1ccc(-c2nn3c(c2-c2ccc4[nH]ncc4c2)CCC3)cc1 [Compound 98] , nothing else. central band
